Readings of nuclear count per well for the listed compounds
Test system: HeLa;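 also: Hoechst-stained nuclei counted by automated confocal imaging of four fields per well in 384-well plates, with the robust Z-score based on the per-plate DMSO median and robust SD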
experiment_summary: nuclear count per well, robust Z-score vs DMSO; higher = more cells (less toxicity)
test_context: 10 µM; 6 h
Where a name gives a salt, the structure may show the parent alone.
recorded_endpoint: nuclear count per well

c1ccc2[nH]cnc2c1 [DRB (Benzimidazole)]	0.163
CN(C)CC[C@@H](c1ccc(Cl)cc1)c1ccccn1 [Dexchlorpheniramine Maleate]	-0.216
O=C1c2cccc3c2[C@H](CCC3)CN1[C@@H]1CN2CCC1CC2	0.471
O=C1Nc2ccc(I)cc2/C1=C/c1cc(Br)c(O)c(Br)c1	0.299
O=C(O)c1cc(=O)c2c(OCC(O)COc3cccc4oc(C(=O)O)cc(=O)c34)cccc2o1	-0.726
CC(=Cc1ccc(C(=O)O)cc1)c1ccc2c(c1)C(C)(C)CCC2(C)C	-0.374
O=C1CCCC(=O)C1C(=O)c1ccc(C(F)(F)F)cc1[N+](=O)[O-] [Nitisinone]	-0.815
c1ccc2c(-c3ccncc3)c[nH]c2c1 [Rockout]	1.18
C[C@@H]1C/C=C/C=C/C=C/C=C/[C@H](O[C@@H]2O[C@H](C)[C@@H](O)[C@H](N)[C@@H]2O)C[C@@H]2O[C@](O)(C[C@@H](O)C[C@H]3O[C@@H]3/C=C/C(=O)O1)C[C@H](O)[C@H]2C(=O)O [Natamycin]	0.636
COCCOc1nc(-c2ccc(Cl)c(Cl)c2)n(-c2ccc(NC(=O)CCl)cc2)n1 [MI 2 (MALT1 inhibitor)]	-2.56
CCN(CC)CCCC(C)Nc1c2ccc(Cl)cc2nc2ccc(OC)cc12 (stereo unspecified)	-2.72
CC(=O)N[C@@H](CSC/C=C(\C)CCC=C(C)C)C(=O)O [N-Acetyl-S-geranyl-L-cysteine]	0.483
CN1C(=O)OC(C)(C)C1=O [Trimethadione]	-1.17
CC(C)Cn1cnc2c(N)nc3ccccc3c21 [Imiquimod]	0.336
O=c1c(O)c(-c2ccc(O)c(O)c2)oc2cc(O)cc(O)c12	-0.68
CCC(=O)O[C@]1(C(=O)CCl)[C@@H](C)C[C@H]2[C@@H]3CCC4=CC(=O)C=C[C@]4(C)[C@@]3(F)[C@@H](O)C[C@@]21C [Clobetasol Propionate]	-0.141
CN1CCCCC1CCN1c2ccccc2Sc2ccc([S+](C)[O-])cc21 (stereo unspecified) [Mesoridazine benzenesulfonate]	0.23
O=C1Cc2cc(CCN3CCN(c4nsc5ccccc45)CC3)c(Cl)cc2N1 [Ziprasidone]	1.42
CN1CCC(=C2c3ccccc3CC(=O)c3sccc32)CC1	-0.95
O=C1[C@H](CC[C@H](O)c2ccc(F)cc2)[C@@H](c2ccc(O)cc2)N1c1ccc(F)cc1 [Ezetimibe]	-0.602
CN1CCC(=C2c3ccccc3C=Cc3ccccc32)CC1 [Cyproheptadine hydrochloride sesquihydrate]	1.34
CC/C(=C(\c1ccccc1)c1ccc(OCCN(C)C)cc1)c1ccccc1 [Tamoxifen Citrate]	0.359
O=C1O[C@H]([C@@H](O)CO)C(O)=C1O [L-Ascorbic Acid]	0.672
CCCCCCCCCCCCCCC[C@@H](O)[C@@H](N)CO [Dihydrosphingosine]	0.706
CC[C@@]1(O)C(=O)OCc2c1cc1n(c2=O)Cc2cc3cc(O)ccc3nc2-1 [10-hydroxycamptothecin]	-4.73
O=C(O)CN1C(=O)c2cccc3cccc(c23)C1=O [Alrestatin]	0.265
Cc1ccc(C(=O)c2ccc(CC(=O)O)n2C)cc1 [Tolmetin sodium dihydrate]	0.866
CCCc1c(OCCCCc2nnn[nH]2)ccc(C(C)=O)c1O	-0.652
CN1[C@@H]2CC[C@H]1C[C@@H](OC(c1ccccc1)c1ccccc1)C2 [Benztropine Mesylate]	0.869
Nc1c(CC(=O)O)cccc1C(=O)c1ccc(Br)cc1 [Bromfenac]	0.258
CCCN1CCCC[C@H]1C(=O)Nc1c(C)cccc1C	0.684
CC(=O)Oc1cc2c(s1)CCN(C(C(=O)C1CC1)c1ccccc1F)C2 (stereo unspecified) [Prasugrel]	-0.0809
NC(=O)N[C@@H](CCC(=O)O)C(=O)O [Carglumic Acid]	2.03
CNCC[C@@H](Oc1ccccc1C)c1ccccc1	-0.742
Nc1nc(Cl)nc2c1ncn2[C@H]1C[C@H](O)[C@@H](CO)O1 [Cladribine]	-0.899
CNCCCC12CCC(c3ccccc31)c1ccccc12 [Maprotiline hydrochloride]	1.55
